Can you tell me IC50 for the items I'm about to list?
- measuredOn: T1, human NGF-Fc4 (IgG4-Fc) (human, UniProt P01138 122-241, limits assumed)
- T1 construct: not shown: human IgG4 Fc
- protocolNotes: competition ELISA: antibody pre-incubated with human NGF-Fc4, binding to coated TrkA-Fc
One number for each entry, in µg/mL.

Worked cases, IC50 given:
Ab52 (antibody, human IgG1, V domains shown) VH: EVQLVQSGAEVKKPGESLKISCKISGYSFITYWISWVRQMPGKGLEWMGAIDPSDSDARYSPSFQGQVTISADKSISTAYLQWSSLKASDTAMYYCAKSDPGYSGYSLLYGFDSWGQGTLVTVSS VL: DIVMTQTPLSSPVTLGQPASISCRSSQSLVQRNGNTYLSWYQQRPGQPPRLLIYQVSNRYSGVPDRFSGSGAGTDFTLKISRVEAEDVGVYYCGQGAHLPLTFGQGTKVEIK :: 0.0702
Ab55 (antibody, human IgG1, V domains shown) VH: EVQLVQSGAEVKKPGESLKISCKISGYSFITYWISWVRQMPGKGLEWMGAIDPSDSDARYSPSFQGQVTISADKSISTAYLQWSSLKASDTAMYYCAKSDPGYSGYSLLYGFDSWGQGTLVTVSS VL: DVVMTQSPLSLPVTLGQPASISCRSSQSLVQRNGNTYLSWYQQRPGQPPRLLIYQVSNRYSGVPDRFSGSGSGTDFTLKISRVEAEDVGVYYCGQGAHLPLTFGQGTKVEIK :: 0.0757
Ab36 (antibody, human IgG1, V domains shown) VH: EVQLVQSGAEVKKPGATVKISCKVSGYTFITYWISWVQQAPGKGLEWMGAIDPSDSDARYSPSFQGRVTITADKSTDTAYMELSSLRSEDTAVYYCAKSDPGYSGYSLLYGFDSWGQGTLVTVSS VL: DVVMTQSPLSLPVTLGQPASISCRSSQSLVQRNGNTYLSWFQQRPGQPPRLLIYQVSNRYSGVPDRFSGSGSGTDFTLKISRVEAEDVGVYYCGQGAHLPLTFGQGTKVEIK :: 0.0899
Ab6 (antibody, human IgG1, V domains shown) VH: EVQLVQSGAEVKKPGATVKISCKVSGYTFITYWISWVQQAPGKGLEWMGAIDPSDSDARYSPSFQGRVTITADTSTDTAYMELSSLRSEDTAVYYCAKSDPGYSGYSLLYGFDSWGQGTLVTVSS VL: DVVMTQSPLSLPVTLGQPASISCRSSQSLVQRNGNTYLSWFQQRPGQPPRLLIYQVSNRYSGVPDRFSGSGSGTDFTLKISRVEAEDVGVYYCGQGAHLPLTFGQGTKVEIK :: 0.0769
Ab44 (antibody, human IgG1, V domains shown) VH: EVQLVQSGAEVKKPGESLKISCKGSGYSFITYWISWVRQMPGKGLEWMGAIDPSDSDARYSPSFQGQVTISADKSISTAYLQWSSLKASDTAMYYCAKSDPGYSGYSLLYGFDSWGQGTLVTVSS VL: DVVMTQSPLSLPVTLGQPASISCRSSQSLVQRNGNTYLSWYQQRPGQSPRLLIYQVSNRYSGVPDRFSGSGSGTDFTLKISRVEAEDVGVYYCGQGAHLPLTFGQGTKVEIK :: 0.13

Hey, can you go through the list below and give me IC50 for every item?
1. Ab61 (antibody, human IgG1, V domains shown) VH: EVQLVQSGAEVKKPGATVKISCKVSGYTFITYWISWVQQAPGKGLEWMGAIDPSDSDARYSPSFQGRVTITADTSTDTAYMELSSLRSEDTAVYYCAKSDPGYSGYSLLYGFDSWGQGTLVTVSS VL: DVVMTQSPLSLPVTLGQPASISCRSSQSLVQRNANTYLSWYQQRPGQSPRLLIYQVSNRYSGVPDRFSGSGSGTDFTLKISRVEAEDVGVYYCGQGAHLPLTFGQGTKVEIK
2. Ab49 (antibody, human IgG1, V domains shown) VH: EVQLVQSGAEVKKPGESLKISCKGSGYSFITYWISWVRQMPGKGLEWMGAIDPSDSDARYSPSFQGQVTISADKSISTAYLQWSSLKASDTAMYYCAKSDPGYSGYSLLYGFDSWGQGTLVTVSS VL: DIVMTQSPLSLPVTLGQPASISCRSSQSLVQRNGNTYLSWYQQRPGQPPRLLIYQVSNRYSGVPDRFSGSGSGTDFTLKISRVEAEDVGVYYCGQGAHLPLTFGQGTKVEIK
3. Ab60 (antibody, human IgG1, V domains shown) VH: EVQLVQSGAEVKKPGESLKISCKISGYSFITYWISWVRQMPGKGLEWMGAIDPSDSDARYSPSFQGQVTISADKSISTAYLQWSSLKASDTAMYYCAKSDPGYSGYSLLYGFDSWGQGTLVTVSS VL: DIVMTQSPLSLPVTLGQPASISCRSSQSLVQRNGNTYLSWFQQRPGQPPRLLIYQVSNRYSGVPDRFSGSGSGTDFTLKISRVEAEDVGVYYCGQGAHLPLTFGQGTKVEIK

Response:
1. 0.07
2. 0.0878
3. 0.0434

Parameter requested: IC50. Apply to each item below.
1. Ab58 (antibody, human IgG1, V domains shown) VH: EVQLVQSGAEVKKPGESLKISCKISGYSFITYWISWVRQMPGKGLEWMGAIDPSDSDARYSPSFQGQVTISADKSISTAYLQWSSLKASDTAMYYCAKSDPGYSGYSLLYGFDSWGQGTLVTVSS VL: DIVMTQSPLSLPVTLGQPASISCRSSQSLVQRNGNTYLSWYQQRPGQSPRLLIYQVSNRYSGVPDRFSGSGSGTDFTLKISRVEAEDVGVYYCGQGAHLPLTFGQGTKVEIK
2. Ab4 (antibody, human IgG1, V domains shown) VH: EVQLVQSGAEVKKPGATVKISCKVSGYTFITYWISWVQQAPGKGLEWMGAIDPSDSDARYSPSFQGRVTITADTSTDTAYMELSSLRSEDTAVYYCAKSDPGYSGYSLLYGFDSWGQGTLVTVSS VL: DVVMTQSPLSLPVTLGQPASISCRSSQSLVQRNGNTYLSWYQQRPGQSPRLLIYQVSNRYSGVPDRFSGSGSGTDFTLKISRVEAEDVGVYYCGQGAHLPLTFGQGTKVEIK

Response:
1. 0.08
2. 0.0746
